# measurement conditions: in ethyl acetate, 298.15 K

| structure notation | solubility (mole fraction) |
| --- | --- |
| COc1cc(/C=C/C(=O)O)cc(OC)c1O | 0.00532 |

###

# measurement conditions: in water, 298.15 K

| structure notation | solubility (mole fraction) |
| --- | --- |
| COc1cc(/C=C/C(=O)O)cc(OC)c1O | 6.22e-05 |

###

# measurement conditions: in water, 303.15 K
outcome measure: solubility (mole fraction)

| structure notation | outcome measure | test result |
| --- | --- | --- |
| COc1cc(/C=C/C(=O)O)cc(OC)c1O | solubility (mole fraction) | 8.11e-05 |
